- Test Protocol: xn = mol fraction of the nth substance listed, in the solute-free solvent
- Condition Info: 293.15 K; x2 = 0.5
Parameter: solubility (g/100 g solution)
A bare number is all that is needed in reply.

Task: Name the recorded solubility (g/100 g solution) of the compound listed here: CC(=O)OC(c1ccccc1)C(Cl)(Cl)Cl (stereo not given) + CC(=O)O + O
Output: 0.967

Task: Specify reported solubility (g/100 g solution) for the compound shown: COC1=CC(=O)CC(C)C12Oc1c(Cl)c(OC)cc(OC)c1C2=O (stereo not given) + CC(=O)CC(C)C + CC(C)O
Output: 0.688

Task: Find the measured solubility (g/100 g solution) of O=C1CCc2ccc(OCCCCN3CCN(c4cccc(Cl)c4Cl)CC3)cc2N1 + CCC(C)=O + CCOC(C)=O and report it.
Output: 1.44

Task: Name the recorded solubility (g/100 g solution) of the compound listed here: O=C1CCc2ccc(OCCCCN3CCN(c4cccc(Cl)c4Cl)CC3)cc2N1 + CCC(C)=O + CC(C)=O
Output: 1.86

Task: Fill in solubility (g/100 g solution) for record O=C(O)C1CSCN1 (stereo not given) + O + CC#N
Output: 0.242

Task: Complete the entry with solubility (g/100 g solution) for COC1=CC(=O)CC(C)C12Oc1c(Cl)c(OC)cc(OC)c1C2=O (stereo not given) + CC(C)=O + CC(C)O
Output: 1.5

Task: Answer with the recorded solubility (g/100 g solution) for the compound listed here: CC(=O)OC(c1ccccc1)C(Cl)(Cl)Cl (stereo not given) + CC(C)O + O
Output: 1.92

Task: # return recorded solubility (g/100 g solution) for input O=C(O)c1ccc(C(=O)O)o1 + C1CCOC1 + O
Output: 6.7

Task: Determine from records and report solubility (g/100 g solution) for COC1=CC(=O)CC(C)C12Oc1c(Cl)c(OC)cc(OC)c1C2=O (stereo not given) + CCC(C)=O + CC(C)O
Output: 1.21

Task: Give solubility (g/100 g solution) for the following compound: CCCCOc1ccc(C(=O)CCN2CCCCC2)cc1.Cl + CCO + CCOC(C)=O
Output: 20.4
